Assay: Specific surface area by nitrogen gas adsorption (BET)
Format: physicochemical
Conditions: relative pressure 0.05 to 0.3 (BET surface area)
Specific surface area values for the compounds below.
Response body: numeric value in m^2/g, unit text excluded.

| Compound | Measured parameter | Measured value |
| --- | --- | --- |
| O=C([O-])CC(O)(CC(=O)[O-])C(=O)[O-].[Fe+3] [Example 21, Iron(III) citrate] | Specific surface area | 35.5 |
| O=C([O-])CC(O)(CC(=O)[O-])C(=O)[O-].[Fe+3] [Comparative Example 11, iron(III) citrate] | Specific surface area | 0.80 |
| O=C([O-])CC(O)(CC(=O)[O-])C(=O)[O-].[Fe+3] [Example 5, Iron(III) citrate] | Specific surface area | 31.0 |
| O=C([O-])CC(O)(CC(=O)[O-])C(=O)[O-].[Fe+3] [Example 1, iron(III) citrate] | Specific surface area | 21.8 |

Req: Looking for the measured Specific surface area of O=C([O-])CC(O)(CC(=O)[O-])C(=O)[O-].[Fe+3] [Example 6, Iron(III) citrate] , can you help?
Resp: 30.4

---

Experiment: Specific surface area by nitrogen gas adsorption (BET)
Format: physicochemical
Conditions: relative pressure 0.05 to 0.3 (BET surface area)
Procedure: A specific surface area can be measured by, for example, but is not limited to, BET surface area measurement via nitrogen gas adsorption (relative pressure: 0.05 to 0.3). Specific surface areas of iron(III) citrates of Comparative Examples 11 and 12 and Examples 1, 4, 5, 6, 7, and 10 to 23 were measured by nitrogen gas adsorption (relative pressure: 0.05 to 0.3) (BET surface area).
Specific surface area values for the compounds below.
Response body: numeric value in m^2/g, unit text excluded.

Use the examples below as a reference point.
| Compound | Unit of measurement | Specific surface area |
| --- | --- | --- |
| O=C([O-])CC(O)(CC(=O)[O-])C(=O)[O-].[Fe+3] [Example 19, Iron(III) citrate] | m^2/g | 39.8 |
| O=C([O-])CC(O)(CC(=O)[O-])C(=O)[O-].[Fe+3] [Example 13, Iron(III) citrate] | m^2/g | 29.1 |
| O=C([O-])CC(O)(CC(=O)[O-])C(=O)[O-].[Fe+3] [Example 10, Iron(III) citrate] | m^2/g | 29.9 |
| O=C([O-])CC(O)(CC(=O)[O-])C(=O)[O-].[Fe+3] [Comparative Example 12, iron(III) citrate] | m^2/g | 0.62 |
| O=C([O-])CC(O)(CC(=O)[O-])C(=O)[O-].[Fe+3] [Example 11, Iron(III) citrate] | m^2/g | 30.0 |

Req: Looking for the measured Specific surface area of O=C([O-])CC(O)(CC(=O)[O-])C(=O)[O-].[Fe+3] [Example 23, Iron(III) citrate] , can you help?
Resp: 32.8

Req: # repeat for O=C([O-])CC(O)(CC(=O)[O-])C(=O)[O-].[Fe+3] [Example 7, Iron(III) citrate]
Resp: 29.8

Req: # repeat for O=C([O-])CC(O)(CC(=O)[O-])C(=O)[O-].[Fe+3] [Example 16, Iron(III) citrate]
Resp: 33.7

Req: # repeat for O=C([O-])CC(O)(CC(=O)[O-])C(=O)[O-].[Fe+3] [Example 12, Iron(III) citrate]
Resp: 30.3

Req: # repeat for O=C([O-])CC(O)(CC(=O)[O-])C(=O)[O-].[Fe+3] [Example 15, Iron(III) citrate]
Resp: 38.5

Req: # repeat for O=C([O-])CC(O)(CC(=O)[O-])C(=O)[O-].[Fe+3] [Example 22, Iron(III) citrate]
Resp: 32.6

Req: # repeat for O=C([O-])CC(O)(CC(=O)[O-])C(=O)[O-].[Fe+3] [Example 18, Iron(III) citrate]
Resp: 39.9

Req: # repeat for O=C([O-])CC(O)(CC(=O)[O-])C(=O)[O-].[Fe+3] [Example 4, iron(III) citrate]
Resp: 33.4

Req: # repeat for O=C([O-])CC(O)(CC(=O)[O-])C(=O)[O-].[Fe+3] [Example 14, Iron(III) citrate]
Resp: 37.9

Req: # repeat for O=C([O-])CC(O)(CC(=O)[O-])C(=O)[O-].[Fe+3] [Example 20, Iron(III) citrate]
Resp: 33.8

Req: # repeat for O=C([O-])CC(O)(CC(=O)[O-])C(=O)[O-].[Fe+3] [Example 17, Iron(III) citrate]
Resp: 32.4
